The measured values listed here are drawn from patent US10005829B2.

Molecular target: T1, APJ receptor (human, UniProt P35414 1-380)
T1 sequence (looked up): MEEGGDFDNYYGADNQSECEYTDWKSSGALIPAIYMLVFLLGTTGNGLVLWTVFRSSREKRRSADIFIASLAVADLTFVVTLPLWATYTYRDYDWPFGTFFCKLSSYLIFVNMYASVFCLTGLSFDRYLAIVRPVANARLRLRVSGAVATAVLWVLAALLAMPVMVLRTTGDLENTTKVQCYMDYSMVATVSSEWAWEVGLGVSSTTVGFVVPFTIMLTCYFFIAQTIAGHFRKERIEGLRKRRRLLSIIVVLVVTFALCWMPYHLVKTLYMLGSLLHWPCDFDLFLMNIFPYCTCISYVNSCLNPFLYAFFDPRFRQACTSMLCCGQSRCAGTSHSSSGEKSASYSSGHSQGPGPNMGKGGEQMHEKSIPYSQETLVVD
Test: cell-based or functional assay
[ ]: non-standard residue; d: D form. pGlu = O=C1CC[C@@H](C(=O)O)N1; dNle = CCCC[C@@H](N)C(=O)O; Nle = CCCC[C@H](N)C(=O)O
// reported hAPJ Ca^2+ Flux EC50 for each item listed
Please reply with the bare figure in nM and do not write the unit itself.

Past entries and their recorded results:
* [pGlu]RPRL[dA]HKGP[dNle]F-OH (SMILES CCCC[C@@H](NC(=O)[C@@H]1CCCN1C(=O)CNC(=O)[C@H](CCCCN)NC(=O)[C@H](Cc1c[nH]cn1)NC(=O)[C@@H](C)NC(=O)[C@H](CC(C)C)NC(=O)[C@H](CCCNC(=N)N)NC(=O)[C@@H]1CCCN1C(=O)[C@H](CCCNC(=N)N)NC(=O)[C@@H]1CCC(=O)N1)C(=O)N[C@@H](Cc1ccccc1)C(=O)O) [pE-R-P-R-L-a-H-K-G-P-nle-F-OH] | 66.5
* ERPRLXHKGPLAF (pE at 1; D-Abu at 6; D-Nle at 11; D-Ala at 12; D-Phe at 13) [pE-R-P-R-L-abu-H-K-G-P-nle-a-f-OH] | 3
* [pGlu]RPRL[dA]HKDP[dNle][dA][dF]-OH (SMILES CCCC[C@@H](NC(=O)[C@@H]1CCCN1C(=O)[C@H](CC(=O)O)NC(=O)[C@H](CCCCN)NC(=O)[C@H](Cc1c[nH]cn1)NC(=O)[C@@H](C)NC(=O)[C@H](CC(C)C)NC(=O)[C@H](CCCNC(=N)N)NC(=O)[C@@H]1CCCN1C(=O)[C@H](CCCNC(=N)N)NC(=O)[C@@H]1CCC(=O)N1)C(=O)N[C@H](C)C(=O)N[C@H](Cc1ccccc1)C(=O)O) [pE-R-P-R-L-a-H-K-D-P-nle-a-f-OH] | 95.9
* [pGlu][dR]PRL[dA]HKGP[dNle][dA][dF]-OH [pE-r-P-R-L-a-H-K-G-P-nle-a-f-OH] | 796
* [pGlu]RPRL[dA]HKGP[dF][dA][dF]-OH (SMILES CC(C)C[C@H](NC(=O)[C@H](CCCNC(=N)N)NC(=O)[C@@H]1CCCN1C(=O)[C@H](CCCNC(=N)N)NC(=O)[C@@H]1CCC(=O)N1)C(=O)N[C@H](C)C(=O)N[C@@H](Cc1c[nH]cn1)C(=O)N[C@@H](CCCCN)C(=O)NCC(=O)N1CCC[C@H]1C(=O)N[C@H](Cc1ccccc1)C(=O)N[C@H](C)C(=O)N[C@H](Cc1ccccc1)C(=O)O) [pE-R-P-R-L-a-H-K-G-P-f-a-f-OH] | 1.5

Incoming: Entry under review: [pGlu]RPRL[dA]HKGP[Nle][dA][dF]-OH [pE-R-P-R-L-a-H-K-G-P-Nle-a-f-OH] . Reported hAPJ Ca^2+ Flux EC50?
Outgoing: 2.4
